# System: Saccharomyces cerevisiae;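 further: PSI is a weighted mean of sequencing reads over stability bins, variants kept only with over 10 reads, mCherry proximal and sfGFP distal, peptide attached via GGGS linker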
# METHOD_DESCRIPTION: protein stability index of tFT-peptide fusion (C-terminal peptide) (PSI (0-1 scale)); higher = more stable (slower turnover)
# MEASUREMENT_PARAMETERS: genetic background: das1 deletion; temperature: 30 C
READOUT: protein stability index
Answer with the value's number alone.

Some sequences with recorded protein stability index:
Which protein stability index is listed for APPSFPPLLLLS ?
0.605

Fill in the blank: the reported protein stability index of SWSLRLSTIFSV is ____.
0.612

Quick one: protein stability index of FVRGWGIVFSLA ?
0.438

New cases:
Which protein stability index value belongs to PHPPRPPCPPIL ?
0.674

Record request: protein stability index value, item CSRVVGLFFLVV
0.427

From: the supplement of paper PMC10724198
